Species: Rattus norvegicus
test protocol: Proliferative activity on the of rat calvaria osteoblasts at concentration of 10e-6 M
Format: functional

chem smiles: COc1cccc(C(=O)NCCC(O)(P(=O)([O-])O)P(=O)([O-])O)c1OC.[Na+].[Na+]
quantity unit: %
Proliferation: 47.4
//
chem smiles: O=C(NCCC(O)(P(=O)([O-])O)P(=O)([O-])O)c1ccc2c(c1)OCO2.[Na+].[Na+]
quantity unit: %
Proliferation: -8.3
//
chem smiles: COc1cccc(C(=O)NCCCC(O)(P(=O)([O-])O)P(=O)([O-])O)c1.[Na+].[Na+]
quantity unit: %
Proliferation: -5.5
//
chem smiles: COc1cccc(C(=O)NCCC(O)(P(=O)([O-])O)P(=O)([O-])O)c1.[Na+].[Na+]
quantity unit: %
Proliferation: 7.1
//
chem smiles: COc1cc([N+](=O)[O-])cc(C(=O)NCCC(O)(P(=O)([O-])O)P(=O)([O-])O)c1OC.[Na+].[Na+]
quantity unit: %
Proliferation: -1.5
